# Test system: CSF1R-autoinhibited
# assay setup: concentration: 1 μM, replicates: in singlicate; n = 1;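 further: KINOMEscan kinase panel screen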
Response field label: string, one of True (%Inh strictly below 60%) or False.

molecule	class assignment
COc1cccc(-c2ccc3c(NC(=O)C4CC4)n[nH]c3n2)c1	True
COc1cc2c(cc1OCCN1CCNCC1)ncc1c3ccc(C#N)cc3[nH]c21	False
COc1cccc(C2=C(Nc3ccc(Cl)c(C(=O)O)c3)C(=O)NC2=O)c1	True
Cc1ccc(C)c(NC(=O)NC2CCN(c3ccnc(Nc4ccc(F)cc4)n3)C2)c1 (centres unmarked)	True
O=C(Nc1n[nH]c2nc(-c3ccc(O)cc3)ccc12)C1CC1	True

State whether 60% exceeds %Inh recorded for `COc1cc(Nc2nccc(-c3c(-c4cccc(NC(=O)c5c(F)cccc5F)c4)nn4ncccc34)n2)cc(OC)c1OC` .
True

Does the reported %Inh of `CC(C)(C)c1ccc2nccc(Nc3cccc(O)c3)c2c1` stay below 60%?
True

%Inh strictly < 60% for this molecule? `CCCCc1nn2ncccc2c1-c1ccnc(Nc2ccc(N3CCN(C)CC3)cc2)n1`
False

====

# System: LYN
# assay setup: concentration: 1 μM, replicates: in singlicate; n = 1
value type: %Inh
Hey, just the number and the unit after it is fine.

State recorded %Inh for all listed molecules.
1. O=C(Nc1n[nH]c2nc(-c3ccc(O)cc3)ccc12)C1CC1 [SB-710363]
2. COC(=O)Nc1nc2ccc(Oc3ccc(NC(=O)Nc4cc(C(F)(F)F)ccc4F)cc3)cc2n1C.Cl [GW692089]
3. Oc1cc(Nc2ccnc3cc(I)ccc23)ccc1F [GW552771]

["23%", "28%", "20%"]

Please report %Inh for every entry that follows.
1. NCCCC(NC(=O)c1cc(Br)c(-c2ccnc3[nH]ccc23)s1)c1ccccc1.O=C(O)C(F)(F)F.O=C(O)C(F)(F)F (centres unmarked) [GSK1287544]
2. Cc1cccc(NC(=O)Nc2ccc(Oc3ncnc4ccn(C)c34)cc2)c1

0%
7%

# batch size: 2; output %Inh per entry
1. O=C(Nc1cccc(-c2nn3ccccc3c2-c2ccnc(Nc3cccc(F)c3)n2)c1)c1c(F)ccc(F)c1Cl [GSK357952]
2. CN1CCN(Cc2cccc(-c3ccc4c(Nc5ccc(Oc6ccccc6)cc5)ccnc4c3)c2)CC1 [GW578342]

1: 83%; 2: 58%

Would you be so kind as to report %Inh for each listed record?
1. Clc1ccc(-c2nn3ncccc3c2-c2ccnc(Nc3ccc4c(c3)OCCO4)n2)cc1 [GW829116]
2. CCS(=O)(=O)c1ccc(OC)c(Nc2nccc(-c3c(-c4cccc(NC(=O)c5c(F)cccc5F)c4)nn4ncccc34)n2)c1 [GSK326180]
3. Cn1cc(-c2ccc3c(c2)CCN3C(=O)Cc2cccc(Cl)c2)c2c(N)ncnc21 [GSK2606590]
4. Cl.Cl.NCC(NC(=O)c1cc(-c2ccccc2)c(-c2ccnc3[nH]ccc23)s1)c1ccccc1 (centres unmarked) [GSK1321561]
5. CN(C)S(=O)(=O)c1cc(-c2ccc3nccc(-c4cccc(S(N)(=O)=O)c4)c3c2)cnc1N [GSK1669921]

["27%", "30%", "15%", "66%", "0%"]

====

Would you kindly list %Inh for each of these molecules?
# Test system: PAK4
# assay setup: concentration: 1 μM, replicates: in singlicate; n = 1
Answers are plain numbers, in %.

molecule	numeric value
FC(F)(F)c1ccc(/C=C/c2cncnc2Nc2ccc3[nH]c(Cc4ccccc4)nc3c2)cc1	0

Hi, could you look up %Inh for each item in my list?
1. CCS(=O)(=O)c1ccc(OC)c(Nc2nccc(-c3c(-c4cccc(NC(=O)c5c(F)cccc5F)c4)nn4ncccc34)n2)c1
2. Cl.Cl.NCC(NCc1ccc(-c2ccnc3[nH]ccc23)s1)c1ccccc1 (stereo not shown)
3. CCc1ccc(-c2ccc3c(c2)-c2c(cnn2C)S(=O)(=O)N3C)cc1

[0, 0, 1]

====

# Tested on: TIE1
# assay setup: concentration: 1 μM, replicates: in singlicate; n = 1
Task for the reader: assign each of the following molecules its reported %Inh.

O=C(Nc1cccc(-c2nn3ncccc3c2-c2ccnc(Nc3ccccc3)n2)c1)c1c(F)cccc1F 45%
CCn1c(-c2nonc2N)nc2c(C#CC(C)(C)O)nc(OC[C@H](N)c3ccccc3)cc21 0%
Nc1ncc(-c2cccnc2)c2scc(-c3ccc4c(c3)CCN4C(=O)Cc3ccccc3)c12 92.5%

Attention now turns to another entry.
Give %Inh; test system TIE1; molecule `Cc1occc1-c1ncc(OC[C@@H](N)Cc2c[nH]c3ccccc23)cc1-c1ccc2[nH]nc(C)c2c1.O=C(O)C(F)(F)F`
18%

====

# Test system: ZAP70
# assay setup: concentration: 1 μM, replicates: in singlicate; n = 1
Please go through the items and note down their %Inh.
Record the result as number plus unit.

Example entries and their recorded answers appear below.
O=C(Nc1cccc(Oc2ccc3nc(NC(=O)C4CC4)cn3n2)c1)c1ccccc1C(F)(F)F 0%
O=C(O)C(F)(F)F.O=C(O)C(F)(F)F.O=c1[nH]ccc2nc(N[C@@H]3CCCNC3)nc(Nc3ccc(S(=O)(=O)N4CCOCC4)cc3)c12 71%

Please state %Inh for every compound in the list that follows.
1. CC(C)(C)c1ccc2nccc(Nc3cccc(O)c3)c2c1
2. O=C(Nc1n[nH]c2nc(-c3ccc(O)cc3)ccc12)C1CC1
3. c1ccc(-c2cnc3nccnn23)cc1
4. Cc1ccc(C(=O)N2CC[C@@H](O)C2)cc1-n1c(C)cc(OCc2ccc(F)cc2F)c(Br)c1=O
5. COc1cc(Nc2nccc(-c3c(-c4cccc(NC(=O)c5c(F)cccc5F)c4)nn4ncccc34)n2)cc(OC)c1OC

["42%", "0%", "0%", "0%", "0%"]

Fill in %Inh for record `COC(=O)Nc1nc2ccc(Oc3ccc(NC(=O)Nc4cc(C(F)(F)F)ccc4F)cc3)cc2n1C.Cl`
0%

====

# System: SGK2
# assay setup: concentration: 1 μM, replicates: in singlicate; n = 1
value type: %Inh
Write the quantity with the unit trailing the number.

Solved entries (count: 2):
compound	system tested	result
CN(c1ccc(NC(=O)Nc2cc(C(F)(F)F)ccc2F)cc1)c1ccnc(Nc2ccc(S(N)(=O)=O)cc2)n1	SGK2	0%
O=C(NC1CCN(c2ccnc(Nc3ccc(F)cc3)n2)C1)c1cc2ccccc2s1 (stereo not shown)	SGK2	0%

Each of the following entries comes with a recorded value; kindly state %Inh for each.
1. Cl.c1ccc(-c2ccc3c(Nc4ccc5[nH]ccc5c4)ccnc3c2)nc1
2. O=C(Nc1cccc(-c2nn3ccccc3c2-c2ccnc(Nc3cccc(C(F)(F)F)c3)n2)c1)c1c(F)cccc1F
3. C[C@@H](Oc1cc(-n2cnc3cc(-c4ccnc(NCCS(C)(=O)=O)c4)ccc32)sc1C(N)=O)c1ccccc1Cl
4. CC(=O)N1CCN(c2ccc(Nc3nccc(-c4sc(C(C)C)nc4-c4cccc(NS(=O)(=O)c5cccc(Cl)c5)c4)n3)cn2)CC1
5. Cl.Cl.NCC(C(=O)Nc1cc(Br)c(-c2ccnc3[nH]ccc23)s1)c1ccccc1 (stereo not shown)
6. COc1cc2c(cc1OCCN1CCNCC1)ncc1c3ccc(C#N)cc3[nH]c21

1. 0%
2. 0%
3. 13%
4. 0%
5. 0%
6. 46%

Provide reported %Inh for each item, in the same order as listed.
1. CNC(=O)c1ccccc1Nc1nc(Nc2ccc(N3CCOCC3)cc2)ncc1Cl.Cl
2. CCn1c(-c2nonc2N)nc2c(C#CC(C)(C)O)ncc(OCCCCN)c21.O=C(O)C(F)(F)F.O=C(O)C(F)(F)F
3. COC(=O)Nc1nc2ccc(Oc3ccc(NC(=O)Nc4cc(C(F)(F)F)ccc4F)cc3)cc2n1C.Cl
4. Cl.NC(=O)c1cccc(Nc2nccc(Nc3ccc(Oc4c(Cl)cccc4Cl)c(Cl)c3)n2)c1

50%
12%
0%
4%

State the recorded %Inh for every item in the following list.
1. Nc1n[nH]c2cnc(-c3ccccc3)cc12
2. COCCOCCOc1cc2ncc3c4ccc(C#N)cc4[nH]c3c2cc1OC
3. COC(=O)Nc1nc2cc(Oc3ccc(NC(=O)Nc4cc(C(F)(F)F)ccc4F)cn3)ccc2[nH]1.Cl.Cl
4. COc1ccc(-c2coc3ccc(-c4nnc(SCc5ccc(OC)c(C(F)(F)F)c5)o4)cc23)cc1
5. Cl.Cl.NCC(NC(=O)c1cc(-c2ccccc2)c(-c2ccnc3[nH]ccc23)s1)c1ccccc1 (stereo not shown)
6. COc1cc(Nc2nccc(N3CCC(NC(=O)c4cc5ccccc5s4)C3)n2)cc(OC)c1OC (stereo not shown)
7. NCCCC(NC(=O)c1cc(Br)c(-c2ccnc3[nH]ccc23)s1)c1ccccc1.O=C(O)C(F)(F)F.O=C(O)C(F)(F)F (stereo not shown)

31%
58%
1%
6%
27%
0%
65%

// for each compound below, give its %Inh
1. COc1cc(Nc2ncc3c(C)nc(-c4cc5ccccc5[nH]4)n3n2)cc(OC)c1OC
2. Cc1ccc(S(=O)(=O)Nc2ccc(Nc3nccc(Nc4cccc5[nH]ncc45)n3)cc2)cc1
3. O=C(Nc1cccc(-c2nn3ncccc3c2-c2ccnc(Nc3ccccc3)n2)c1)c1c(F)cccc1F
4. CCS(=O)(=O)c1ccc(OC)c(Nc2nccc(-c3c(-c4cccc(NC(=O)c5c(F)cccc5F)c4)nn4ncccc34)n2)c1

0%
9%
0%
5%

State the recorded %Inh for every item in the following list.
1. Cc1ccc(F)c(C(=O)Nc2cccc(-c3nn4ccccc4c3-c3ccnc(Nc4cccc(F)c4)n3)c2)c1F
2. CC(C)c1nc(-c2cccc(NS(=O)(=O)c3c(F)cccc3F)c2F)c(-c2ccnc(Nc3ccc(N4CCOCC4)nc3)n2)s1
3. CCn1c(-c2nonc2N)nc2c(C#CC(C)(C)O)nc(OC[C@H](N)c3ccccc3)cc21
4. CN(C)S(=O)(=O)c1cc(-c2ccc3nccc(-c4cccc(S(N)(=O)=O)c4)c3c2)cnc1N
5. Cn1cc(-c2ccc3c(c2)CCN3C(=O)Cc2cccc(F)c2)c2c(N)ncnc21

["4%", "9%", "18%", "6%", "18%"]

For every record below, what is its %Inh?
1. Cc1ccc(C)c(NC(=O)NC2CCN(c3ccnc(Nc4ccc(F)cc4)n3)C2)c1 (stereo not shown)
2. CSc1cccc2c(-c3ccncn3)c(-c3ccc(F)cc3)nn12
3. COc1cccc(C(=O)Nc2cccc(Oc3ccc4nc(NC(=O)C5CC5)cn4n3)c2)c1

1: 2%; 2: 15%; 3: 0%
